Listed below: normalized RNA/DNA level without ligand (log10) values for each entry.
B1: library; a variant is named by its letters at N, in order (parent)
chain: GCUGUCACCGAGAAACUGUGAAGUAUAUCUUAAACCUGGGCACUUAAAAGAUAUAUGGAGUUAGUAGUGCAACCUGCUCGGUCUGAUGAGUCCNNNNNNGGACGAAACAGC

Variants of: B1
Test: normalized RNA/DNA level without ligand (relative to sTRSVctl = 100) (log10 (% of sTRSVctl)); HEK293T; ligand: cyclic di-GMP (c-di-GMP-II aptamer); higher = less ribozyme self-cleavage, higher mRNA level
Settings: reporter: mCherry (pCS4076), ligand present: no
// response body must contain only the number

{"Mutant name": "CAGCCA", "Reported": 1.42}
{"Mutant name": "UGAGAU", "Reported": 1.61}

Prompt: Returns the measured normalized RNA/DNA level without ligand (log10) for the input variant. Input: `UCACGA`
Completion: 1.63

Prompt: Another variant to look at: `CGCUCC`
Completion: 1.77

Prompt: Another variant to look at: `CACCGA`
Completion: 1.63

Prompt: Another variant to look at: `GUUUUG`
Completion: 1.61

Prompt: Another variant to look at: `AUGAGU`
Completion: 1.54

Prompt: Another variant to look at: `GCCGUA`
Completion: 1.57

Prompt: Another variant to look at: `AGUGCC`
Completion: 1.82

Prompt: Another variant to look at: `AUUGAU`
Completion: 1.63

Prompt: Another variant to look at: `CCCGAU`
Completion: 1.64

Prompt: Another variant to look at: `CGCUAU`
Completion: 1.41

Prompt: Another variant to look at: `UGGUAU`
Completion: 1.66

Prompt: Another variant to look at: `CGCUGA`
Completion: 1.53

Prompt: Another variant to look at: `UGGCAA`
Completion: 1.64
